test system: NDR1; construct: gene STK38; conditions: concentration: 1 μM, replicates: in singlicate; n = 1;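 further: KINOMEscan kinase panel screen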
Recorded %Inh values for a group of molecules are listed next.
READOUT KIND: %Inh (%)

molecule=C[C@@H]1CCN(C(=O)CO)C[C@@H]1N(C)c1ncnc2[nH]ccc12 measured_target=NDR1 readout_kind=%Inh measure_unit=% recorded_measurement=6
molecule="Cc1cccc(-c2nc(Nc3ccc4[nH]nnc4c3)c3ccccc3n2)n1 [GW867587]" measured_target=NDR1 readout_kind=%Inh measure_unit=% recorded_measurement=0
molecule="CCc1nc(-c2cccc(N(C)S(=O)(=O)c3ccccc3)c2)c(-c2ccnc(Nc3ccc(N4CCN(C(C)=O)CC4)nc3)n2)s1 [GSK1645895]" measured_target=NDR1 readout_kind=%Inh measure_unit=% recorded_measurement=15
molecule="Nc1nc(-c2ccccn2)c(-c2ccnc3ccccc23)s1 [GW548057]" measured_target=NDR1 readout_kind=%Inh measure_unit=% recorded_measurement=31
molecule="CC(C)(C)c1ccc(-n2cnc3c(N)ncnc32)cc1 [SKF-97263]" measured_target=NDR1 readout_kind=%Inh measure_unit=% recorded_measurement=0
molecule=OCCOCCn1ccc2ncnc(Nc3ccc(Oc4cccc(Cl)c4)c(Cl)c3)c21 measured_target=NDR1 readout_kind=%Inh measure_unit=% recorded_measurement=30
molecule="Cl.Cl.c1ccc(-c2cc3ccncc3cc2OC2CCNCC2)cc1 [GSK1122999]" measured_target=NDR1 readout_kind=%Inh measure_unit=% recorded_measurement=0
molecule="Fc1cccc(COc2ccc(Nc3ncnc4nn5ccccc5c34)cc2Cl)c1 [GW689066]" measured_target=NDR1 readout_kind=%Inh measure_unit=% recorded_measurement=55
molecule="COc1cc2c(Nc3cccc(NC(=O)c4ccccc4)c3)ncnc2cc1OCCCN1CCOCC1 [GSK223810]" measured_target=NDR1 readout_kind=%Inh measure_unit=% recorded_measurement=0
molecule="CNc1nccc(-c2c(-c3ccc(F)cc3)ncn2C2CCN(C)CC2)n1 [SB-222903]" measured_target=NDR1 readout_kind=%Inh measure_unit=% recorded_measurement=33
molecule="Cl.c1ccc(Cn2ccc3cc(Nc4ncnc5ccccc45)ccc32)cc1 [GW275568]" measured_target=NDR1 readout_kind=%Inh measure_unit=% recorded_measurement=32
molecule="O=C(Nc1ccccc1F)NC1CCN(c2ccnc(Nc3ccc(F)cc3)n2)C1 (stereo not drawn) [GSK1379722]" measured_target=NDR1 readout_kind=%Inh measure_unit=% recorded_measurement=12
molecule="COc1cc2ncnc(Nc3ccc(OCc4ccccc4Br)c(Cl)c3)c2cc1OC.Cl [GI261590]" measured_target=NDR1 readout_kind=%Inh measure_unit=% recorded_measurement=0
molecule=O=C(Nc1ccccc1)Nc1ccc(Oc2ccc3nccn3n2)cc1 measured_target=NDR1 readout_kind=%Inh measure_unit=% recorded_measurement=16
molecule="CN1CCC(n2cnc(-c3ccc(F)cc3)c2-c2ccnc(NC3CCNCC3)n2)CC1 [SB-229482]" measured_target=NDR1 readout_kind=%Inh measure_unit=% recorded_measurement=0
molecule=Cn1ccc2ncnc(Oc3ccc(NC(=O)Nc4cccnc4)c(Cl)c3)c21 measured_target=NDR1 readout_kind=%Inh measure_unit=% recorded_measurement=0
molecule=N#Cc1ccc(Oc2ccc(Nc3ncnc4cc[nH]c34)cc2Cl)cc1 measured_target=NDR1 readout_kind=%Inh measure_unit=% recorded_measurement=33
molecule="Cc1cc(N2CCC(NS(=O)(=O)c3ccc(F)cc3)CC2)nc(Nc2cccc(C#N)c2)n1.O=C(O)C(F)(F)F [GSK1653537]" measured_target=NDR1 readout_kind=%Inh measure_unit=% recorded_measurement=0
